System: NCI-H522 lung
Assay: NCI tumour cell line growth inhibition, 48 h
Catalogue of molecules with associated TGI
observationType: TGI

[[record]]
molecule = "CC(C)C[C@H](NC(=O)[C@H](CCc1ccccc1)NC(=O)c1ccc2ccccc2n1)B(O)O"
recordedmeasurement = "< 0.0405 µM"

[[record]]
molecule = "C#CC#CC#CC#CC#CC#CC#CC#CCC1OC[C@H](COC(=O)O[C@@H](C(=O)O[C@H]2C[C@@]3(O)[C@@H](OC(=O)c4ccccc4)[C@@H]4[C@]5(OC(C)=O)CO[C@@H]5C[C@H](O)[C@@]4(C)C(=O)[C@H](OC(C)=O)C(=C2C)C3(C)C)[C@@H](NC(=O)c2ccccc2)c2ccccc2)O1 (stereo partly drawn)"
recordedmeasurement = "> 33.3 µM"

[[record]]
molecule = "CN(Cc1ccccc1)C1(N(C)Cc2ccccc2)CC1"
recordedmeasurement = "> 100 µM"

